Biological target: Avi-KRAS G12R (1-169) GppNHp/RAF1 RBD-3xFLAG (52-151) (Homo sapiens, UniProt P01116, G12R)
Construct: Avi-KRAS G12R (1-169)
Sequence (P01116 1-169 isoform P01116-2 G12R): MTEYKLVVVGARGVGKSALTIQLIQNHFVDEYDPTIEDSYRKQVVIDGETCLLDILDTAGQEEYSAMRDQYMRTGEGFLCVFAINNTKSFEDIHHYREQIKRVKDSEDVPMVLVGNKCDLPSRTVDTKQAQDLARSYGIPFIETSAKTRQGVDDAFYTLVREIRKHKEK
Experiment: Raf1-KRAS G12R-GppNHP disruption HTRF assay (Biological Example 1)
Assay type: binding
Conditions: KRAS G12R-GppNHp/RAF1 RBD HTRF
observationType: IC50

CCN(c1nc(OC[C@@]23CCCN2C[C@H](F)C3)nc2c(F)c(-c3ccc(F)c4sc(N)c(C#N)c34)c(C(F)(F)F)cc12)[C@H]1CCN(C(=O)CCC#N)C1 (atropisomer, axis not shown) [Compound 555] = < 0.1 µM

Input line: Give the measured IC50 of CC(=O)N1C[C@@H]2CC[C@H]1CN2c1nc(OC[C@@]23CCCN2C[C@H](F)C3)nc2c(F)c(-c3ccc(F)c4sc(N)c(C#N)c34)c(C(F)(F)F)cc12 [Compound 455] .
Output line: 0.1 to 1 µM

Input line: Quick one: IC50 of CCN(c1nc(OC[C@@]23CCCN2C[C@H](F)C3)nc2c(F)c(-c3ccc(F)c4sc(N)c(C#N)c34)c(C(F)(F)F)cc12)[C@H]1CCN(C(=O)c2ccno2)C1 (atropisomer, axis not shown) [Compound 552] ?
Output line: < 0.1 µM

Input line: Entry CN(C)C(=O)c1cc2n(n1)CCN(c1nc(OC[C@@]34CCCN3C[C@H](F)C4)nc3c(F)c(-c4ccc(F)c5sc(N)c(C#N)c45)c(C(F)(F)F)cc13)C2 [Compound 355] has what IC50?
Output line: 0.1 to 1 µM

Input line: Would you kindly share the measured IC50 for CCC(=O)N1CC[C@@H](N(CC)c2nc(OC[C@@]34CCCN3C[C@H](F)C4)nc3c(F)c(-c4ccc(F)c5sc(N)c(C#N)c45)c(C(F)(F)F)cc23)[C@H]1C (atropisomer, axis not shown) [Compound 523] ?
Output line: < 0.1 µM

====

Tested on: KP-2 cells (KRAS G12R)
Experiment: 3D Cell viability assay in KP-2 cells (Biological Example 6)
Type: cell-based
Details: KP-2 (KRAS G12R) spheroids, 72 hours
observationType: IC50

CCN(c1nc(OC[C@@]23CCCN2C[C@H](F)C3)nc2c(F)c(-c3ccc(F)c4sc(N)c(C#N)c34)c(C(F)(F)F)cc12)[C@H]1CCN(C(C)=O)C1 [Compound 262] = 100 to 1000 nM

Please examine the following record next.
Input line: Query: IC50; subject: CCN(c1nc(OC[C@@]23CCCN2C[C@H](F)C3)nc2c(F)c(-c3ccc(F)c4sc(N)c(C#N)c34)c(C(F)(F)F)cc12)[C@H]1CCN(C(=O)C(C)C)C1 [Compound 332]
Output line: ≤ 100 nM

====

Target: Avi-KRAS G12V (1-169) GppNHp/RAF1 RBD-3xFLAG (52-151) (Homo sapiens, UniProt P01116, G12V)
Construct: Avi-KRAS G12V (1-169)
Sequence (P01116 1-169 isoform P01116-2 G12V): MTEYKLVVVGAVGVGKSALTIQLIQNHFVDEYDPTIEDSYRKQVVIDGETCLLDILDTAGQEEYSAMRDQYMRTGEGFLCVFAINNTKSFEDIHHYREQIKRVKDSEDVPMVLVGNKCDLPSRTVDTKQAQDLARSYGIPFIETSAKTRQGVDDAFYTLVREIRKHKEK
Test: Raf1-KRAS G12V-GppNHP disruption HTRF assay (Biological Example 1)
Type: binding
Settings: KRAS G12V, GppNHp-loaded; class symbols
observationType: IC50

Some solved entries appear below for comparison.
CCN(c1nc(OC[C@@]23CCCN2C[C@H](F)C3)nc2c(F)c(-c3ccc(F)c4sc(N)c(C#N)c34)c(C(F)(F)F)cc12)[C@H]1C[C@@H](C)N(C(=O)c2ccon2)C1 (atropisomer, axis not shown) = 100 to 1000 nM
C=C(C)C(=O)N1CC[C@H](N(CC)c2nc(OC[C@@]34CCCN3C[C@H](F)C4)nc3c(F)c(-c4ccc(F)c5sc(N)c(C#N)c45)c(C(F)(F)F)cc23)C1 (atropisomer, axis not shown) = < 100 nM
CCN(c1nc(OC[C@@]23CCCN2C[C@H](F)C3)nc2c(F)c(-c3ccc(F)c4sc(N)c(C#N)c34)c(C(F)(F)F)cc12)[C@H]1C[C@H](C)N(C(=O)OC)C1 (atropisomer, axis not shown) = < 100 nM
CCN1CC[C@H](N(CC)c2nc(OC[C@@]34CCCN3C[C@H](F)C4)nc3c(F)c(-c4ccc(F)c5sc(N)c(C#N)c45)c(C(F)(F)F)cc23)C1=O (atropisomer, axis not shown) = 100 to 1000 nM

// next entry
Input line: Missing value: IC50, Avi-KRAS G12V (1-169) GppNHp/RAF1 RBD-3xFLAG (52-151) (Homo sapiens, UniProt P01116, G12V), entry N#Cc1c(N)sc2c(F)ccc(-c3c(C(F)(F)F)cc4c(N5CCn6nc(C(=O)N7CCC7)cc6C5)nc(OCC56CCCN5CC(F)C6)nc4c3F)c12 (centres unmarked) . Fill in?
Output line: 100 to 1000 nM
